In this section, each of the compounds is paired with its reported pIC50.
System: L6
Assay: Cytotoxicity in rat L6 cells assessed as reduction in cell viability incubated for 72 hrs by alamar blue dye based assay
Settings: L6, 72 h
pIC50: −log10 of the molar value.
ENDPOINT LABEL: pIC50

CC(C)(C)OC(=O)N(CCCCCCCCN(CCCNC(=O)C1CCC2(CC1)OOC1(O2)C2CC3CC(C2)CC1C3)C(=O)OC(C)(C)C)CCCNC(=O)C1CCC2(CC1)OOC1(O2)C2CC3CC(C2)CC1C3 (stereo not given)    4.24
C[C@H]1[C@H](OC(=O)CCC(=O)NCCCN(CCCCCCCN(CCCNC(=O)CCC(=O)O[C@@H]2O[C@@H]3O[C@@]4(C)CC[C@H]5[C@H](C)CC[C@@H]([C@H]2C)[C@@]35OO4)C(=O)CCC(=O)O[C@@H]2O[C@@H]3O[C@@]4(C)CC[C@H]5[C@H](C)CC[C@@H]([C@H]2C)[C@@]35OO4)C(=O)CCC(=O)O[C@@H]2O[C@@H]3O[C@@]4(C)CC[C@H]5[C@H](C)CC[C@@H]([C@H]2C)[C@@]35OO4)O[C@@H]2O[C@@]3(C)CC[C@H]4[C@H](C)CC[C@@H]1[C@@]24OO3    5.91
O=C(NCCCN(CCCCCCN(CCCNC(=O)C1CCC2(CC1)OOC1(O2)C2CC3CC(C2)CC1C3)C(=O)C1CCC2(CC1)OOC1(O2)C2CC3CC(C2)CC1C3)C(=O)C1CCC2(CC1)OOC1(O2)C2CC3CC(C2)CC1C3)C1CCC2(CC1)OOC1(O2)C2CC3CC(C2)CC1C3 (stereo not given)    4.20

Each recorded value in this set is attributed to ChEMBL document CHEMBL4190368.
